# key: entry, value: Artifact Signal (percent)
- Run Description: AlphaScreen counterscreen against bio-H3K4me2 peptide in the absence of enzyme (artifact signal);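 also: counterscreen run without enzyme against bio-H3K4me2 peptide to remove false positive hits from the JARID1 demethylase AlphaScreen screen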
- Condition Notes: effect of the compound when incubated with bio-H3K4me2 peptide (counterscreen, no enzyme)
Readout Type: Artifact Signal (percent) (%)

[
  {
    "Molecule": "O=C(NC(=S)NCc1ccccc1)C1CCCC1",
    "Unit Spec": "%",
    "Value Observed": "−1.54"
  },
  {
    "Molecule": "NNC(=O)c1ccncc1.Nc1ccc(C(=O)O)c(O)c1 [YU034557, PASINIAZID, reference compound]",
    "Unit Spec": "%",
    "Value Observed": 1.76
  },
  {
    "Molecule": "Oc1c(C(Nc2ccccc2Cl)c2cccnc2)ccc2cccnc12 (stereo not drawn)",
    "Unit Spec": "%",
    "Value Observed": 36.24
  },
  {
    "Molecule": "COc1ccc(OC)c(Nc2nc(=O)c3cccnc3s2)c1",
    "Unit Spec": "%",
    "Value Observed": "−2.12"
  },
  {
    "Molecule": "CCn1c(S)nnc1-c1ccncc1",
    "Unit Spec": "%",
    "Value Observed": "−3.18"
  },
  {
    "Molecule": "N[C@@H](Cc1ccc(O)c(O)c1)C(=O)O [YU034332, LEVODOPA, reference compound]",
    "Unit Spec": "%",
    "Value Observed": 14.27
  },
  {
    "Molecule": "N#CC(=Cc1ccncc1)c1nc2ccccc2s1",
    "Unit Spec": "%",
    "Value Observed": 0.34
  },
  {
    "Molecule": "O=c1c(O)c(-c2ccc(O)c(O)c2)oc2c(O)c(O)cc(O)c12 [YU155360, GOSSYPETIN, reference compound]",
    "Unit Spec": "%",
    "Value Observed": 81.81
  },
  {
    "Molecule": "CCOc1c(CNc2ccc(N3CCCC3)cc2)cccc1OC",
    "Unit Spec": "%",
    "Value Observed": 17.14
  },
  {
    "Molecule": "O=c1c(O[C@@H]2O[C@H](CO)[C@@H](O)[C@H](O)[C@H]2O)c(-c2ccc(O)c(O)c2)oc2cc(O)cc(O)c12 [YU221011, Isoquercitrin, reference compound]",
    "Unit Spec": "%",
    "Value Observed": 15.17
  },
  {
    "Molecule": "O=C(Cn1c(=O)oc2ccccc21)Nc1cccc([N+](=O)[O-])c1",
    "Unit Spec": "%",
    "Value Observed": 1.65
  },
  {
    "Molecule": "C#CCOc1c(Cl)cc(C(=S)N2CCOCC2)cc1OC",
    "Unit Spec": "%",
    "Value Observed": "−3.09"
  },
  {
    "Molecule": "COC(=O)c1cc(Br)c(OCc2ccccc2)c(CO[Si](C(C)(C)C)(C(C)(C)C)C(C)(C)C)c1OCc1ccccc1",
    "Unit Spec": "%",
    "Value Observed": "−3.99"
  },
  {
    "Molecule": "COc1ccc(C2CC(c3cccnc3)Nc3nnnn32)cc1 (stereo not drawn)",
    "Unit Spec": "%",
    "Value Observed": "−2.19"
  },
  {
    "Molecule": "COC(=O)c1cccc(OCC(O)Cn2ccnc2)c1 (stereo not drawn)",
    "Unit Spec": "%",
    "Value Observed": 7.00
  },
  {
    "Molecule": "O=C(NC1CCCCC1)c1ccc(NC(=O)c2ccccc2O)cc1",
    "Unit Spec": "%",
    "Value Observed": 4.58
  },
  {
    "Molecule": "N#CC(=Cc1ccc(O)c(O)c1)C(N)=O (single isomer, unassigned) [YU154833, TYRPHOSTIN 46, reference compound]",
    "Unit Spec": "%",
    "Value Observed": 4.32
  },
  {
    "Molecule": "Nc1nc2nc[nH]c2c(=S)[nH]1 [YU034024, THIOGUANINE, reference compound]",
    "Unit Spec": "%",
    "Value Observed": 0.37
  },
  {
    "Molecule": "C[C@@H]1O[C@@H](OC[C@H]2OC(OC3=C(c4ccc(O)c(O)c4)Oc4cc(O)cc(O)c4C3O)[C@H](O)[C@@H](O)[C@@H]2O)[C@H](O)[C@H](O)[C@H]1O (stereo partly drawn) [YU033654, RUTOSIDE (rutin), reference compound]",
    "Unit Spec": "%",
    "Value Observed": 5.37
  },
  {
    "Molecule": "S=C(Nc1ccc2c(c1)OCO2)Nn1cnnc1",
    "Unit Spec": "%",
    "Value Observed": "−1.29"
  },
  {
    "Molecule": "c1cc(CNc2ccc(N3CCOCC3)cc2)ccn1",
    "Unit Spec": "%",
    "Value Observed": 4.18
  },
  {
    "Molecule": "O=S(=O)(NN1CCOCC1)c1ccc(Cl)cc1",
    "Unit Spec": "%",
    "Value Observed": 3.44
  },
  {
    "Molecule": "Cc1cc(C(=O)Nc2c(C)n(C)n(-c3ccccc3)c2=O)c(C)o1",
    "Unit Spec": "%",
    "Value Observed": 4.15
  },
  {
    "Molecule": "c1ccc2c(NCc3ccncc3)cccc2c1",
    "Unit Spec": "%",
    "Value Observed": 2.10
  },
  {
    "Molecule": "CCOC(=O)C(CCOc1cccc(CC)c1)C(=O)OCC",
    "Unit Spec": "%",
    "Value Observed": "−3.73"
  },
  {
    "Molecule": "CNC(C(=O)N(C)OC)C(C)C (stereo not drawn)",
    "Unit Spec": "%",
    "Value Observed": 1.39
  },
  {
    "Molecule": "Cc1ccc(C(=O)Nc2nnc(-c3ccncc3)s2)o1",
    "Unit Spec": "%",
    "Value Observed": 6.66
  },
  {
    "Molecule": "Cc1cc(C)nc(N(C#N)C(=S)N(C)C)n1",
    "Unit Spec": "%",
    "Value Observed": "−8.59"
  },
  {
    "Molecule": "N#Cc1c(O)nc(S)nc1-c1ccccc1",
    "Unit Spec": "%",
    "Value Observed": "−2.92"
  },
  {
    "Molecule": "CN(C)c1cccc2c(C=O)ccc(N(C)C)c12",
    "Unit Spec": "%",
    "Value Observed": 7.56
  },
  {
    "Molecule": "O=C1c2ccccc2C(=O)c2c(NCCc3ccc(O)cc3)ccc(NCCc3ccc(O)cc3)c21 [YU019467, BML-266, reference compound]",
    "Unit Spec": "%",
    "Value Observed": 55.18
  },
  {
    "Molecule": "CC(C)n1c(-c2ccccc2F)n[nH]c1=S",
    "Unit Spec": "%",
    "Value Observed": 4.74
  },
  {
    "Molecule": "O=C(O)c1cccc(NCc2ccncc2)c1",
    "Unit Spec": "%",
    "Value Observed": 0.89
  },
  {
    "Molecule": "O=C(O)c1cc(NCc2cc(O)ccc2O)ccc1O [YU154859, reference compound]",
    "Unit Spec": "%",
    "Value Observed": 3.65
  },
  {
    "Molecule": "NNC(=O)c1ccncc1 [YU033872, ISONIAZID, reference compound]",
    "Unit Spec": "%",
    "Value Observed": "−6.34"
  },
  {
    "Molecule": "Oc1ccc2c(c1)OCC1(O)Cc3cc(O)c(O)cc3C21 (stereo not drawn) [YU154998, BRAZILIN, reference compound]",
    "Unit Spec": "%",
    "Value Observed": "−0.48"
  }
]
